# methodDescription: RPL19A-GFP modulators, yeast TOR pathway, confirmation, cell-based, S. cerevisiae, flow cytometry, cherry picks, mother/daughter gates (AID 2270)
# testSettings: S. cerevisiae RPL19A-GFP strain, 3 h, at 10 µM, stronger effect = lower value, 100 = same GFP as DMSO wells
reportedMetric: GFP response vs DMSO (%)
Respond with the bare value in %.

Query: Find the measured GFP response vs DMSO of `O=C(c1cccc(COc2ccc(Cl)cc2Cl)c1)N1CCN(c2ccccn2)CC1` and report it.
Result: 80

Query: Find the measured GFP response vs DMSO of CCS(=O)(=O)N1N=C(c2ccc(NS(C)(=O)=O)cc2)CC1c1ccccc1 (stereo unspecified) and report it.
Result: 99.8

Query: Find the measured GFP response vs DMSO of CC(OC(=O)CSc1ccc([N+](=O)[O-])cc1)C(=O)NCc1ccccc1 (stereo unspecified) and report it.
Result: 101

Query: Find the measured GFP response vs DMSO of Cc1cccc(N2C(=O)CC(Sc3nc(C)c4c(n3)CCCC4)C2=O)c1 (stereo unspecified) and report it.
Result: 96.8

Query: Find the measured GFP response vs DMSO of `COc1ccc(CN2CCN(c3ncccn3)CC2)c(C)c1C` and report it.
Result: 96.2

Query: Find the measured GFP response vs DMSO of `COc1ccc(S(=O)(=O)N2CCC(O)(c3ccc(Cl)cc3)CC2)cc1` and report it.
Result: 101

Query: Find the measured GFP response vs DMSO of `COc1cc(NC(=O)c2ccccc2)ccc1NC(=O)c1cc2ccccc2o1` and report it.
Result: 98.7

Query: Find the measured GFP response vs DMSO of `Cc1ccc(C(=O)/C=C/C(=O)c2ccc(C)cc2)cc1` and report it.
Result: 103

Query: Find the measured GFP response vs DMSO of `CCN(CC)C(=O)Cn1c(C)c(/C=C/c2cc[n+](C)cc2)c2ccccc21` and report it.
Result: 107

Query: Find the measured GFP response vs DMSO of `CC(C)c1nc2ccccn2c1NC1CCCCC1` and report it.
Result: 101

Query: Find the measured GFP response vs DMSO of Cc1ccc(C(=O)N2c3ccccc3NC(=O)C2C)cc1 (stereo unspecified) and report it.
Result: 99.9
